Data origin: patent US20250388574A1

- Target or test system: hTREM2 (Homo sapiens, UniProt Q9NZC2)
- Sequence (Q9NZC2 19-230): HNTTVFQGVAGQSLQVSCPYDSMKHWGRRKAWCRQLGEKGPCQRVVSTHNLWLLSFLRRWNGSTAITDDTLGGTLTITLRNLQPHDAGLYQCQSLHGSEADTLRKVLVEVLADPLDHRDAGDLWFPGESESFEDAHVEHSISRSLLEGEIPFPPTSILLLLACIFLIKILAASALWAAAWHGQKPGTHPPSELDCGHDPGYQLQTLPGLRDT
- Sequence (O43914 22-113 partner): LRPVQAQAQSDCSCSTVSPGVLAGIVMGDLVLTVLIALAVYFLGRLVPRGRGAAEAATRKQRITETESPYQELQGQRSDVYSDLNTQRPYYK
- Assay procedure: Phospho-Syk AlphaScreen/AlphaLISA assay in TREM2 and DAP12 overexpressing HEK293 cells (Example A1)
- Type: cell-based
- Set-up: expressed in transfected cells
- Measurement conditions: HEK293 cells
Recorded metric: Emax

- CCCn1c(C)nc2cc(N3Cc4cnn(C)c4C3)nc(-c3ccc(Cl)cc3F)c2c1=O: ++++ (Emax>300)
- Cc1csc(C2CN(c3cc4nc(C)n(C)c(=O)c4c(-c4ccc(Cl)cc4F)n3)CCO2)n1 (stereo not shown): ++++ (Emax>300)

---

- Target or test system: hTREM2 (Homo sapiens)
- Assay procedure: Phospho-Syk AlphaScreen/AlphaLISA assay in TREM2 and DAP12 overexpressing HEK293 cells (Example A1)
- Type: cell-based
- Parameters: expressed in transfected cells
- Measurement conditions: HEK293 cells
Recorded metric: Emax

Study these solved cases before continuing.
• Cc1nc2cc(N3CCO[C@H]([C@@H]4CCO4)C3)nc(-c3ccc(Cl)cc3F)c2c(=O)n1C (single isomer, unassigned) [Example 40] = +++ (Emax>200 and ≤300)
• Cc1nc2cc(N3CCO[C@@H](c4cccc(C(F)(F)F)c4)C3)nc(-c3ccc(Cl)cc3F)c2c(=O)n1C (single isomer, unassigned) = ++ (Emax>100 and ≤200)
• Cc1nc2cc(N3CCc4ccnc(Cl)c4C3)nc(-c3ccc(Cl)cc3F)c2c(=O)n1C = +++ (Emax>200 and ≤300)
• Cc1nc2cc(N3CCO[C@H](C4CC4)C3)nc(-c3ccc(Cl)cc3F)c2c(=O)n1C = +++ (Emax>200 and ≤300)
• Cc1nc2cc(N3CCO[C@@H](c4ccc(OCC(F)(F)F)nc4)C3)nc(-c3ccc(Cl)cc3F)c2c(=O)n1C = ++ (Emax>100 and ≤200)

Next up:
Query the reported Emax for hTREM2 (Homo sapiens); item: "CCCn1c(C)nc2cc(N3CCO[C@H](CF)C3)nc(-c3ccc(Cl)cc3F)c2c1=O" +++ (Emax>200 and ≤300)
